B1: TPR t1 (parent)
chain: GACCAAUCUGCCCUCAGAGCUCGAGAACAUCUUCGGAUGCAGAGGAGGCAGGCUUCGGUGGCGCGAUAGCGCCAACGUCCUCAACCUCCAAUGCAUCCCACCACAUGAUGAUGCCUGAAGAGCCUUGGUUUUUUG

- Variants of: B1
- Assay summary: polymerase ribozyme fitness, log enrichment relative to wild type (log ratio); higher = more active; in vitro selection for triplet polymerase activity
Catalogue of polymerase ribozyme fitness (log ratio) values
Measured quantity: polymerase ribozyme fitness (log ratio)

1. G57U G110U = -1.8
2. U14G C34A G117A = -4.56
3. A29U A66C = -2.83
4. G39U C70G = -4.12
5. C12A C49A G63U A121U U132C G135A = 1.42
6. C3G C8G G10A A18U A41G G69C A121G = -4.57
7. U9A C13G C20A A43G A95G = -4.1
8. G48U G63U C72U C86A A91C = -5.91
9. C11G U14A A46U G61A C62U = -2.33
10. A6C A18U G52C C79U C89U C101U = -2.96
11. C62G U78G C88G = -3.52
